# target_of_assay: T1, Human VSIG4-S-Fc (human)
# T1 construct: short isoform ECD fused to human Fc1; also called hVSIG4-S
# assay_name: ELISA, Fab P.E. 1:5 on coated antigen;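 further: mouse Fab P.E. samples in 1% skimmed milk PBS, bound to antigen-coated wells for 1 h at room temperature, read as absorbance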
Exercise: for every item that follows, state its recorded ELISA OD450.

Worked examples, 3 binders total:
>  <binder>
12A12 mouse Fab (periplasmic extract) (Fab, V domains shown, mouse Fab with C-terminal His6-c-myc tag) VH: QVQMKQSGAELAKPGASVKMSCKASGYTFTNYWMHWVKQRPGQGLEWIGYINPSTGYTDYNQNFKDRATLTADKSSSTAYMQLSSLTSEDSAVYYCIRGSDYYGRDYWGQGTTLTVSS VL: DIQMTQTTSSLSASLGDRVTISCRASQDISNYLNWYQQKPDGTLKLLIYYTSRLHSGVPSRFSGSGSGTDYSLTISNLEQEDIATYFCRQGNTLPWTFGGGTKLEIK

>  <parameter>
ELISA OD450

>  <value_observed>
4.18 OD450

$$$$
>  <binder>
14D12 mouse Fab (periplasmic extract) (Fab, V domains shown, mouse Fab with C-terminal His6-c-myc tag) VH: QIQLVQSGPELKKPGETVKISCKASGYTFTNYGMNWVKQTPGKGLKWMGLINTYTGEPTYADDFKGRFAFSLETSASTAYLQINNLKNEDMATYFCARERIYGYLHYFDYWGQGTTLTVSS VL: DVVMTQTPASLAVSLGQRATISCKASQSVDYDGDSYMNWYQQKPGQPPKLLIYAASNLESGIPARFSGSGSGTDFTLNIHPVEEEDAATYYCQQSNEDPRTFGGGTKLEIK

>  <parameter>
ELISA OD450

>  <value_observed>
4.18 OD450

$$$$
>  <binder>
15C04 mouse Fab (periplasmic extract) (Fab, V domains shown, mouse Fab with C-terminal His6-c-myc tag) VH: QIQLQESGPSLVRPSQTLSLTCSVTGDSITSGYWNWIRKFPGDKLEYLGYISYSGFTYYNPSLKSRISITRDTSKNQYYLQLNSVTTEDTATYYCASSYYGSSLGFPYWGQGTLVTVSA VL: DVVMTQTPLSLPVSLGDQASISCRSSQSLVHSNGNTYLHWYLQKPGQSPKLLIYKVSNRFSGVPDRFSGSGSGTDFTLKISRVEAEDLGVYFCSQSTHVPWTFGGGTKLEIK

>  <parameter>
ELISA OD450

>  <value_observed>
0.06 OD450

$$$$

With those in mind, consider the next binder.
Given item 16E03 mouse Fab (periplasmic extract) (Fab, V domains shown, mouse Fab with C-terminal His6-c-myc tag) VH: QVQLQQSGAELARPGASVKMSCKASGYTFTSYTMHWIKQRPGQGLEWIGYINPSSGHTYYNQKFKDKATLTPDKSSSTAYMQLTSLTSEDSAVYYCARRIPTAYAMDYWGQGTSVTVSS VL: EIQMTQSHKFMSTSVGDRVSITCKASQDVGTAVAWYQQKPGQSPKLLIYWASTRHTGVPDRFTGSGSGTDFTLTISNVQSEDLADYFCQQYSSYPLTFGAGTKLELK , the value recorded as its ELISA OD450 is 4.3 OD450
